Cited source: the supplement of paper PMC10567573

B1: TRIM55 (parent)
chain: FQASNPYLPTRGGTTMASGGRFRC

variants of: B1; experiment: protein stability index of a GFP-peptide fusion (GPS, HEK-293T) (PSI 1-6); higher = more stable; settings: c terminus: a fixed tail appended;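 note: lentivirally expressed fusions sorted by FACS into six bins by GFP to DsRed ratio, PSI derived from sequencing read proportions per bin multiplied by bin number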
Would you mind labelling by protein stability index? At or over 3 is label 1, under is label 0.

mutantlabel=P6C classlabel="label 1"
mutantlabel=N5H classlabel="label 1"
mutantlabel=P9N classlabel="label 0"
mutantlabel=Q2N classlabel="label 0"
mutantlabel=P9C classlabel="label 0"
mutantlabel=L8T classlabel="label 0"
mutantlabel=S18M classlabel="label 0"
mutantlabel=T10H classlabel="label 0"
mutantlabel=T14C classlabel="label 0"
mutantlabel=A3V classlabel="label 0"
mutantlabel=G12A classlabel="label 0"
